Numbers sourced from patent US6933309B2.

Recorded melting point for the following compounds

structure	melting point
Cc1oc(-c2ccccc2)nc1CCOc1ccc(C[C@H](NCc2c(F)cccc2F)C(=O)O)cc1	165 to 167 °C
Cc1oc(-c2ccccc2)nc1CCOc1ccc(C[C@H](NCc2ccccc2)C(=O)O)cc1	206 to 209 °C
Cc1oc(-c2ccc(F)cc2)nc1CCOc1ccc(C[C@H](NCc2ccc(F)cc2)C(=O)O)cc1	191 to 193 °C

Entry under test: "Cc1sc(-c2ccccc2)nc1CCOc1ccc(C[C@H](NCc2ccc(F)cc2)C(=O)O)cc1" . Its melting point was 192 to 195 °C

Entry under test: "Cc1oc(-c2ccccc2)nc1CCOc1ccc(C[C@H](NCc2ccc(F)cc2)C(=O)O)cc1" . Its melting point was 184.5 to 186.5 °C
